Target: NRF2 (nuclear factor erythroid 2-related factor 2) (Homo sapiens, UniProt Q16236)
Sequence (O15525 whole entry): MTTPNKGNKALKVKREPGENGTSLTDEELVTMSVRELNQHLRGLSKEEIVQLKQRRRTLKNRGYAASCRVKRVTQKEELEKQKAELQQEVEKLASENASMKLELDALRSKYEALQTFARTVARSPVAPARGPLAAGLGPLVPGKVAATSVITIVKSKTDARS
Sequence (Q16236 whole entry): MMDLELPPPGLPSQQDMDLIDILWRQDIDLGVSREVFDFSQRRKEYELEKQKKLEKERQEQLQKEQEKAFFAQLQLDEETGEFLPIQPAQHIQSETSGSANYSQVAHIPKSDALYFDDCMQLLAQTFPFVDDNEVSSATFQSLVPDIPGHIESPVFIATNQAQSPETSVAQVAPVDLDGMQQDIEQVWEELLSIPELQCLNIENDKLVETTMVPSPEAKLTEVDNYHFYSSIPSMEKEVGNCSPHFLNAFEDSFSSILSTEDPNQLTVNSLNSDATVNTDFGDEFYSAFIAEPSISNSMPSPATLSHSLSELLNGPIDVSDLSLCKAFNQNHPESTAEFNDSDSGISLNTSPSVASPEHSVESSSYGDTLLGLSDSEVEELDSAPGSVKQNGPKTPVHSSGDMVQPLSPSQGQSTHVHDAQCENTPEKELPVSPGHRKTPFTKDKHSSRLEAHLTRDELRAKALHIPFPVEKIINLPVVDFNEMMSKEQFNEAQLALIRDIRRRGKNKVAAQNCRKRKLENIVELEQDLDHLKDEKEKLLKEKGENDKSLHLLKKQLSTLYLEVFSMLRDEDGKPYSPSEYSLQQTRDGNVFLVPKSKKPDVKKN
Parameter Measured: IC50 (nM)
Report the figure in nM without appending any unit label.

Recorded result, Cc1ccccc1C(=O)N1CCc2cc(-c3nc(NC(=O)Cc4ccc5c(c4)OCO5)sc3C)ccc21 [compound 2, ML385] , IC50: 1900
